# test-name: Drug repurposing screens with cells derived from glioblastoma tumor samples (AID 1345199); further: on the % scale 0 is the no-effect control and ±100 the full control effect; nearly all actives have a fitted effect of over 40% in size
# measurement-parameters: GBM patient neurospheres viability, ATP luminescence, 48 h; at 46.1 µM (top of the series); tumour line C
Results filed as inconclusive are left out.
For each of the molecules below, state its activity, negative = cell killing.
Answers are plain numbers, in %.

Count: 5. Required value per item: activity, negative = cell killing.
1. O=C(O)c1cc(=O)c2c3nc4ccccc4oc-3cc(=O)c2[nH]1
2. CN1CCC(CN2c3ccccc3Sc3ccccc32)C1 (configuration not stated)
3. CCCC(=O)O[C@]1(C(=O)COC(C)=O)CC[C@H]2[C@@H]3C[C@H](F)C4=CC(=O)C=C[C@]4(C)[C@@]3(F)[C@@H](O)C[C@@]21C
4. CCc1ccc2c(c1)N(CC(C)CN(C)C)c1ccccc1S2 (configuration not stated)
5. Cc1ccccc1OCC(O)CNCCOc1ccc(C(N)=O)cc1 (configuration not stated)

[-22.4, 0.543, -14.3, 11.1, -1.19]

Count: 3. Required value per item: activity, negative = cell killing.
1. CC(=O)O[C@]1(C(C)=O)CC[C@H]2[C@@H]3CCC4=CC(=O)CC[C@]4(C)[C@@]3(F)[C@@H](O)C[C@@]21C
2. Cc1ccccc1
3. Nc1ccn([C@H]2CS[C@@H](CO)O2)c(=O)n1

[8.8, 2.61, 0.221]

###

For each of the compounds below, state its max response.
# Test system: NIH3T3
# test-name: Cytotoxic Profiling of Annotated Libraries Using Quantitative High-Throughput Screening (AID 1296008); further: on the % scale 0 is the no-effect control and ±100 the full control effect; nearly all actives have a fitted effect of over 60% in size
# measurement-parameters: Five cell lines viability, CellTiter-Glo ATP luminescence, 48-72 h; active compounds read low
Inconclusive results are not listed.
Give bare numbers, in %.

Reference set, count: 5
compound: C/C(=C/CCC(CO)C1CCC2(C)C3CCC4C(C)(C)C(OC5OC(CO)C(O)C(O)C5O)CC(O)C45CC35CCC12C)COC1OC(CO)C(O)C(O)C1O (configuration not stated)
unit-tag: %
max response: 0.608

compound: COC(=O)C1=CO[C@@H](O[C@@H]2O[C@H](CO[C@@H]3O[C@H](COC(=O)/C=C/c4ccc(O)cc4)[C@@H](O)[C@H](O)[C@H]3O)[C@@H](O)[C@H](O)[C@H]2O)[C@@H]2C(CO)=CC[C@H]12
unit-tag: %
max response: 0.0703

compound: NC1CCC(N[C@@H]2C[C@H]2c2ccccc2)CC1 (some centres not stated)
unit-tag: %
max response: 3.03

compound: C=C[C@H]1[C@H](O[C@@H]2O[C@H](CO)[C@@H](O)[C@H](O)[C@H]2O)OC=C(C(=O)OC)[C@H]1C[C@@H]1N[C@H](C(=O)O)Cc2c1[nH]c1ccccc21
unit-tag: %
max response: -2.92

compound: CC(=O)Oc1cc2c(s1)CCN([C@H](C(=O)C1CC1)c1ccccc1F)C2
unit-tag: %
max response: 3.19

Count: 2. Required value per item: max response.
1. O=C(O)[C@H]1CCCC[C@H]1C(=O)N1CCc2ccccc2[C@H]1CN1C(=O)c2ccccc2C1=O
2. COc1cc(O[C@@H]2O[C@H](CO)[C@@H](O)[C@H](O)[C@H]2O)c(CCC(=O)OC[C@H]2O[C@@H](Oc3cc(OC)c(C4OC(=O)C(C)(O)C4O)cc3CCC(=O)O)[C@H](O)[C@@H](O)[C@@H]2O)cc1C1OC(=O)C(C)(O)C1O (some centres not stated)

1. 2.69
2. -2.47
